Hello, the source for this data is paper PMC3305808, in case you need it.

Please go through the items and note down their % repression of λpR-lacZ.
- experimental_target: the molecule itself
- test_description: λ cI repressor fusion dimerization assay
Only the number, expressed in %, is required.

Query string: May I ask what % repression of λpR-lacZ has been recorded for λcIDB-AaTadZ K150A (natural protein) MLLLDQETITADSARTITVVSSRDDIQGEVAQTLRTRGLENIEIVKKDFFTSSDEISFSAEDTVGVIIDITHETNIKTIVERVFSVVPQNVWCCVIGDSDSISLSQKLLDEGILYFNSHTQLSQMVEKIILGVDIPRLRDTVKIAVLSCAGGIGASLISSHIANEIVSSKKIPVLLAQGPNGSQDLDLLFDKKLSGNVIEYAPNLDIFNGGLFELTPAATEKYNFIIYDQPIYNVKKDNFIGFLENYNNFVLVVERKIGSLRLAKQFLDECERIRSTSRKPIRTFVCISDNRLEAAKLMAKNDIETLIGSSIDAIIPYVKNTNTKTVLGINLGRDGKKEINSLMLKVIGAISRSSKPKEKQSLFSSFFTKLIKQ ?
Result string: 60.3

Query string: May I ask what % repression of λpR-lacZ has been recorded for λcIDB-AaTadZ S156T (natural protein) MLLLDQETITADSARTITVVSSRDDIQGEVAQTLRTRGLENIEIVKKDFFTSSDEISFSAEDTVGVIIDITHETNIKTIVERVFSVVPQNVWCCVIGDSDSISLSQKLLDEGILYFNSHTQLSQMVEKIILGVDIPRLRDTVKIAVLSCKGGIGATLISSHIANEIVSSKKIPVLLAQGPNGSQDLDLLFDKKLSGNVIEYAPNLDIFNGGLFELTPAATEKYNFIIYDQPIYNVKKDNFIGFLENYNNFVLVVERKIGSLRLAKQFLDECERIRSTSRKPIRTFVCISDNRLEAAKLMAKNDIETLIGSSIDAIIPYVKNTNTKTVLGINLGRDGKKEINSLMLKVIGAISRSSKPKEKQSLFSSFFTKLIKQ ?
Result string: 53.7
